Biological target: T1, c-erbB-2 expressed on cells (SK-OV-3, SK-BR-3) (UniProt P04626 23-1255, limits assumed)
T1 construct: whole, on cells; also called native c-erbB-2 expressed on cells; c-erbB-2 on SK-OV-3 cells
Experiment: Scatchard after radioiodination, SK-OV cells
QUANTITY_NAME: Kd (nM)
One number for each entry, in nM.

Answered examples (3):
BINDER	Kd [nM]
C6VLB (scFv, Light chain shuffled; mixture of monomer and dimer by gel filtration) scFv: QVQLLQSGAELKKPGESLKISCKGSGYSFTSYWIAWVRQMPGKGLEYMGLIYPGDSDTKYSPSFQGQVTISVDKSVSTAYLQWSSLKPSDSAVYFCARHDVGYCSSSNCAKWPEYFQHWGQGTLVTVSSGGGGSGGGGSGGGGSQSVLTQPPSVSAAPGQKVTISCSGSSSNIGNNYVSWYQQLPGTAPKLLIYSDNQRPSGVPDRFSGSKSGTSASLAISGLRSEDEADYYCAAWDDSLSGHWVFGGGTKLTVLG	30
C6VLE (scFv, Radioiodinated for the Scatchard assay; the label is not carried in the letters., Light chain shuffled; mixture of monomer and dimer by gel filtration) scFv: QVQLLQSGAELKKPGESLKISCKGSGYSFTSYWIAWVRQMPGKGLEYMGLIYPGDSDTKYSPSFQGQVTISVDKSVSTAYLQWSSLKPSDSAVYFCARHDVGYCSSSNCAKWPEYFQHWGQGTLVTVSSGGGGSGGGGSGGGGSQSVLTQPPSVSAAAGQKVTISCSGSSSSIGRNYVSWNQQLPGTAPKLLIWRNNQRPSGVPDRFSGSKSGTSASLAISGVRSEDEADYYCASWDNSLSGWVFGGGTKLTVLG	71
C6VLD (scFv, Radioiodinated for the Scatchard assay; the label is not carried in the letters., Light chain shuffled; mixture of monomer and dimer by gel filtration) scFv: QVQLLQSGAELKKPGESLKISCKGSGYSFTSYWIAWVRQMPGKGLEYMGLIYPGDSDTKYSPSFQGQVTISVDKSVSTAYLQWSSLKPSDSAVYFCARHDVGYCSSSNCAKWPEYFQHWGQGTLVTVSSGGGGSGGGGSGGGGSQSVLTQPPSVSAAPGQKVTISCSGTNSNIGNNYVSWYQQLPGTAPKLLIYTNDQRPSGVPDRFSGSKSGTSASLAISGLQSEDEADYYCAAWDDSLNGWMFGGGTKLTVLG	26

As a next step, examine the binder that follows.
*Q* State its Kd for this binder: C6VLF (scFv, Radioiodinated for the Scatchard assay; the label is not carried in the letters., Light chain shuffled; mixture of monomer and dimer by gel filtration) scFv: QVQLLQSGAELKKPGESLKISCKGSGYSFTSYWIAWVRQMPGKGLEYMGLIYPGDSDTKYSPSFQGQVTISVDKSVSTAYLQWSSLKPSDSAVYFCARHDVGYCSSSNCAKWPEYFQHWGQGTLVTVSSGGGGSGGGGSGGGGSQSVLTQPPSMSAAPGQKVTISCSGSSSNIGNNYVSWYQQFPGTAPKLLIHDNNKRPSGIPDRISGSKSGTSASLAISGLQSDDEADYYCAAWDDSLNGWVFGGGTKLTVLG
*A* 79

Each recorded value in this set is attributed to patent US6512097.
